System: biotinyl-Met-oxazolone
Assay: self-aminoacylation, catalytic enhancement (BMO) (fold over background); higher = more active; k-Seq, kA / k0A0; sequences stand for … in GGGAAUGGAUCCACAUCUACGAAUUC…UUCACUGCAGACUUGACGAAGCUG
Fewer inactive variants are shown than the library holds.
Reported self-aminoacylation is given for each of the following sequences.

Here's what some known entries look like.
CCACAGUUCAAGCAAUCGGUA [Fam1B.1 aminoacylation ribozyme variant]
1.28
AUUCACCUAGCUCAUCGGGUA [Fam2.2 aminoacylation ribozyme variant]
2.03
CCAAACUUCAAGCGAUCGGUC [Fam1B.1 aminoacylation ribozyme variant]
1.11

Query: Could you tell me which self-aminoacylation is on file for CCACACUUCAAGCUUUCGGUC [Fam1B.1 aminoacylation ribozyme variant] ?
Result: 1.17

---

Parameter: self-aminoacylation. Scope: all listed entries.
Tested on: biotinyl-Leu-oxazolone
Assay: self-aminoacylation, catalytic enhancement (BLO) (fold over background); higher = more active; k-Seq, kA / k0A0; sequences stand for … in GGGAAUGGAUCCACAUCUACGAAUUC…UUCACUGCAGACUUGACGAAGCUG
Variants at the floor of the assay were thinned out.
Form field (numeric): enter value without unit.

AAAUUCGCUAAUAGUCGCAAG [Fam3.1 aminoacylation ribozyme variant]
2.19
AUUCUCCUAGGCCAUCGGGUG [Fam2.2 aminoacylation ribozyme variant]
7
CUUACCCUGGUCAUAGAGUGA [Fam2.1 aminoacylation ribozyme variant]
5.85
CCACCCUUCAGGCAAUCGGUC [Fam1B.1 aminoacylation ribozyme variant]
1.55
AAGGUUGGUAAUAGUCGCAAG [Fam3.1 aminoacylation ribozyme variant]
1.55

Query: What self-aminoacylation value was documented for this sequence, CUUCACUUAGGUCAUCGGGUG [Fam2.2 aminoacylation ribozyme variant] ?
Result: 5.55

Query: Request the reported self-aminoacylation associated with CUACUUCAAACAAUCGGCCAG [Fam1A.1 aminoacylation ribozyme variant]
Result: 1.19

---

Tested on: biotinyl-Val-oxazolone
Experiment: self-aminoacylation, catalytic enhancement (BVO) (fold over background); higher = more active; k-Seq, kA / k0A0; sequences stand for … in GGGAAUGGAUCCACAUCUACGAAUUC…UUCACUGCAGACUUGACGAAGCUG
Fewer inactive variants are shown than the library holds.
Response key: t means self-aminoacylation >= 1; f means self-aminoacylation < 1.

Some entries whose results are on file:
AAGAUUGCUAAUAGUCCCAAG [Fam3.1 aminoacylation ribozyme variant]
f
ACGUUUCCUAAUAGUCGCAAG [Fam3.1 aminoacylation ribozyme variant]
t

Query: Does the reported self-aminoacylation for AUUUCCCUAGGUCAUCGGGUG [Fam2.2 aminoacylation ribozyme variant] fall at or above the 1 mark?
Result: t

Query: Please tell me: is the sequence ACACACUUCAAGCACUCGGUC [Fam1B.1 aminoacylation ribozyme variant] at or over 1 in terms of self-aminoacylation?
Result: t

Query: Hello, I need to know if CUACGUCACACAAUCGGUCUG [Fam1A.1 aminoacylation ribozyme variant] has measured self-aminoacylation not below 1. Thanks!
Result: f

Query: Check the entry AUUCAGCUAGGUCAUCGGGUA [Fam2.2 aminoacylation ribozyme variant] : does self-aminoacylation equal or exceed 1?
Result: t

Query: // inclusive: self-aminoacylation at least 1? input: AUUCCCCUGGUCAACGAGUGA [Fam2.1 aminoacylation ribozyme variant]
Result: t

Query: API: above_or_equal(metric=self-aminoacylation, cutoff=1) for item AUUACCCUGGUCGUAGAGUGA [Fam2.1 aminoacylation ribozyme variant]
Result: t

Query: // inclusive: self-aminoacylation at least 1? input: CCUCACUUCGAGCAAUCGGUC [Fam1B.1 aminoacylation ribozyme variant]
Result: t

From: the supplement of paper PMC9233669
